Biological target: T1, human PD-1 (#PD1-H82E4, AcroBiosystems) (human, UniProt Q15116 25-167)
T1 construct: bought
T1 sequence (Q15116 25-167 limits assumed): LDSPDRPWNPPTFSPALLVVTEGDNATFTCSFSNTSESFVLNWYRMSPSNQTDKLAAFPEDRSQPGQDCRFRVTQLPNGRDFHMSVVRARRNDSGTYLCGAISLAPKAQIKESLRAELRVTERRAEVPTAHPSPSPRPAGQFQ
Assay: SPR, PD-1 on captured IgG1
Metric name: kon (M⁻¹ s⁻¹)
A number alone suffices; assume M⁻¹ s⁻¹.

Reference set (2 entries):
{"Binder": "JOH712 (antibody, human IgG1, V domains shown, human IgG1) VH: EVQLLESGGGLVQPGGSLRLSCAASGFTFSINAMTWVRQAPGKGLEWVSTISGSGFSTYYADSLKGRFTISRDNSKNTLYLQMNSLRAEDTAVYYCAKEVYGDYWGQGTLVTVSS VL: RSVLTQPPSASGTPGQRVSISCSGASSNIGSQSVFWYQQHPGTAPKLLIYSNNQRPSGVPDRFSGSKSGTSASLAISGLRSEDEADYYCAAWDDSLSIWVFGGGTKLTVL", "Readout unit": "M⁻¹ s⁻¹", "kon": 163000}
{"Binder": "NWL270 (antibody, human IgG1, V domains shown, human IgG1) VH: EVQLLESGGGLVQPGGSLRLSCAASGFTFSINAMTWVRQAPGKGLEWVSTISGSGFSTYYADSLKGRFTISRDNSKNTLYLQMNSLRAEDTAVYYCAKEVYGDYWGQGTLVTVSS VL: RSVLTQPPSASGTPGQRVSISCSGASSNIGSQSVFWYQQLPGTAPKLLIYSNNQRPSGVPDRFSGSKSGTSASLAISGLRSEDEADYYCAAWDDSLSNWVFGGGTKLTVL", "Readout unit": "M⁻¹ s⁻¹", "kon": 429000}

Query block: Reported kon for FHX509 (antibody, human IgG1, V domains shown, human IgG1) VH: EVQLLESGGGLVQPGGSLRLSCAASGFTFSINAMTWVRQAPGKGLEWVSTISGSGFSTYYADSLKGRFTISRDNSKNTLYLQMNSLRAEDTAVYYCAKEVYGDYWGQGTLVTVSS VL: RSVLTQPPSASGTPGQRVSISCSGASSNIGSQSVFWYQQLPGTAPKLLIYSNNQRPSGVPDRFSGSKSGTSASLAISGLRSEDEADYYCAAWDDSLSAWVFGGGTKLTVL : what is it?
Result block: 121000

Where do these numbers come from? They come from patent EP4671273A1.
